Recorded DC50 by entry
Tested System: HiBit-BRG1 fusion protein in stable HeLa cell line expressing HiBit-BRG1 and LgBit (Homo sapiens, UniProt P51532)
Construct: expressed in transfected cells
Sequence (P51532 whole entry, the tested form may be a part): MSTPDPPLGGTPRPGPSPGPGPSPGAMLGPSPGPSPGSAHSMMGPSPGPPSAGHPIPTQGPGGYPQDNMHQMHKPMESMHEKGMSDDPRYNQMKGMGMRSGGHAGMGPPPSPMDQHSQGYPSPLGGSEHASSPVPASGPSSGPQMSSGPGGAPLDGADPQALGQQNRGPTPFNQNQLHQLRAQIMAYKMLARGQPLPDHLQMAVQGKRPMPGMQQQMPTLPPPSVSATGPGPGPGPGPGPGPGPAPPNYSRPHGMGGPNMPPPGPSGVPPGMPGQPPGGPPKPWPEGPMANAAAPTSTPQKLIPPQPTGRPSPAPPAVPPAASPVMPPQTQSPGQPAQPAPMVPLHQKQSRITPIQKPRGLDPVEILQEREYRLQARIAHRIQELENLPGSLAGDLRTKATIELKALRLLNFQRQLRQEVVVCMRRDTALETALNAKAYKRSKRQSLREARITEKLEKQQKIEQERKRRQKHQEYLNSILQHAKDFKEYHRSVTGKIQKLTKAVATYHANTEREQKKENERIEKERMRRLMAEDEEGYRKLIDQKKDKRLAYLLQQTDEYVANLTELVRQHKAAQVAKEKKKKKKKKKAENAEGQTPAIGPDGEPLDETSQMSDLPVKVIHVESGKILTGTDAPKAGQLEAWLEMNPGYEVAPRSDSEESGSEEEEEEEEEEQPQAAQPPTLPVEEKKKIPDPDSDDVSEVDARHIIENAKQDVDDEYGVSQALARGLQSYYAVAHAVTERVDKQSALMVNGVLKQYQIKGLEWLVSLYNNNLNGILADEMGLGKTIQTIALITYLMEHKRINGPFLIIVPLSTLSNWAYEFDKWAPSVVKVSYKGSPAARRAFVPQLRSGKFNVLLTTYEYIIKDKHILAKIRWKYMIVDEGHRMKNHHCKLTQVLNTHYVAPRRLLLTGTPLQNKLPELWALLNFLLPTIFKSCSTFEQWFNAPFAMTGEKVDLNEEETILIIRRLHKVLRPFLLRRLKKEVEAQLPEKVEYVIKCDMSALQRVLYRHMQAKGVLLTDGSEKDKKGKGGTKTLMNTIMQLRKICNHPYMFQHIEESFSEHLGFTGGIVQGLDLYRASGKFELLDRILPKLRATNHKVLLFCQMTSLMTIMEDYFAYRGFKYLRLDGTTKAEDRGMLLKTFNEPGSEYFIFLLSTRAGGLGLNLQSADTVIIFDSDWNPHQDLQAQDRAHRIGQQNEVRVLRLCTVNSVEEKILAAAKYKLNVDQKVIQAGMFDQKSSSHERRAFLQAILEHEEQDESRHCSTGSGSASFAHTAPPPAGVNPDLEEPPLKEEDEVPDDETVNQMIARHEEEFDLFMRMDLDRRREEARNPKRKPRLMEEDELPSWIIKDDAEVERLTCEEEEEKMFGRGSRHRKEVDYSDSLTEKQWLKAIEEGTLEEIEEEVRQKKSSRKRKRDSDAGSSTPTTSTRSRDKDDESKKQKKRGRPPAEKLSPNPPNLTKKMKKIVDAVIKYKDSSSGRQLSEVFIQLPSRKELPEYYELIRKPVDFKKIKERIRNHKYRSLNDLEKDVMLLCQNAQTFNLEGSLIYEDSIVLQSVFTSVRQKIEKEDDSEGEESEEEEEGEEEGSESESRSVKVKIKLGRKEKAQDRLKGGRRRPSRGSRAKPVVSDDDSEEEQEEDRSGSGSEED
Assay Overview: HiBiT-BRG1 cell-based degradation assay (Nano-Glo HiBiT, 24 h)
Measurement Conditions: HeLa HiBit-BRG1/LgBit cells, read-out: BRMG1 HiBit Degradation IC50

Worked examples, 4 molecules total:
Molecule	DC50
Cc1ncsc1-c1ccc([C@H](C)NC(=O)[C@@H]2C[C@@H](O)CN2C(=O)[C@@H](c2cc(N3CC4(CC(Oc5ccc6cc(-c7ccccc7O)nnc6c5)C4)C3)no2)C(C)C)cc1	> 10 nM
Cc1ncsc1-c1ccc([C@H](C)NC(=O)[C@@H]2C[C@@H](O)CN2C(=O)C(C(C)C)n2cc(N3CCC(C4CCN(c5ccc6cc(-c7ccccc7O)nnc6c5)CC4)C3)nn2)cc1 (some centres unmarked)	< 10 nM
Cc1cc(-c2cc([C@H](C(=O)N3C[C@H](O)C[C@H]3C(=O)N[C@@H](C)c3ccc(-c4scnc4C)cc3)C(C)C)on2)cnc1N1CCC(c2ccc3nnc(-c4ccccc4O)cc3c2)CC1	> 10 nM
Cc1ncsc1-c1ccc([C@H](C)NC(=O)[C@@H]2C[C@@H](O)CN2C(=O)[C@@H](c2cc(N3CC4=C(CN(c5ccc6nnc(-c7ccccc7O)cc6c5)C4)C3)no2)C(C)C)cc1	< 10 nM

Okay, now this molecule:
// recorded DC50 for Cc1ncsc1-c1ccc([C@H](C)NC(=O)[C@@H]2C[C@@H](O)CN2C(=O)[C@@H](c2cc(N3CCN([C@@H]4CCN(c5ccc6nnc(-c7ccccc7O)cc6c5)CC4(F)F)CC3)no2)C(C)C)cc1 : < 10 nM
